Tested on: 454973-116-R2-J3-PDC spheroids, viability, % test/control
Assay: Anticancer human tumor 454973-116-R2-J3-PDC patient-derived pancreatic carcinoma cell line growth inhibition [GQUAD]
Conditions: second compound 0.316 µM; first compound 1 µM; active compounds read low; spheroids with HUVEC and MSC
Recorded viability, T/C by entry
Give the quantity in %, number only.

Solved entries (count: 2):
compound	result
O=C(c1cc(Cc2n[nH]c(=O)c3ccccc23)ccc1F)N1CCN(C(=O)C2CC2)CC1 + CN(C)c1ccc(Nc2c3ccc(NC(=O)CCN4CCCC4)cc3nc3cc(NC(=O)CCN4CCCC4)ccc23)cc1	88.2
CC1COCCN1c1cc(C2(S(C)(=N)=O)CC2)nc(-c2ccnc3[nH]ccc23)n1 (stereo not drawn) + CN(C)c1ccc(Nc2c3ccc(NC(=O)CCN4CCCC4)cc3nc3cc(NC(=O)CCN4CCCC4)ccc23)cc1	100

Please turn your attention to the following entry.
Exam item: Requested read-out viability, T/C, target or system 454973-116-R2-J3-PDC spheroids, viability, % test/control, entry COc1cc(C2c3cc4c(cc3C(OC3OC5COC(C)OC5C(O)C3O)C3COC(=O)C23)OCO4)cc(OC)c1O (stereo not drawn) + Cc1cnc(CNC(=O)c2c(=O)c3ccc(N4CCCN(C)CC4)nc3n3c2sc2ccccc23)cn1
Marked response: 38

---

System: 454973-116-R2-J3-PDC spheroids, viability, % test/control
Assay: Anticancer human tumor 454973-116-R2-J3-PDC cell line growth inhibition [GQUAD];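 also: spheroids exposed to compounds for seven days; 100% = DMSO vehicle control viability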
Settings: second compound 10 µM; first compound 0.1 µM; active compounds read low; spheroids with HUVEC and MSC
Recorded viability, T/C by entry
Give the quantity in %, number only.

Solved entries (count: 2):
compound	endpoint label	result
COc1ccc([C@@H](O)c2cc(-c3ncnc4cc(N5CCOCC5)ccc34)c(F)cc2Cl)nn1 + Cc1[nH]c2ccc(F)cc2c1-c1nc2c3cccnc3c3ncccc3c2[nH]1	viability, T/C	80.2
O=c1[nH]cc(F)c(=O)[nH]1 + Cc1[nH]c2ccc(F)cc2c1-c1nc2c3cccnc3c3ncccc3c2[nH]1	viability, T/C	87.7

Please turn your attention to the following entry.
Exam item: Requested read-out viability, T/C, target or system 454973-116-R2-J3-PDC spheroids, viability, % test/control, entry O=c1[nH]cc(F)c(=O)[nH]1 + CN(C)c1ccc(Nc2c3ccc(NC(=O)CCN4CCCC4)cc3nc3cc(NC(=O)CCN4CCCC4)ccc23)cc1
Marked response: 74.2

---

Test system: 454973-116-R2-J3-PDC spheroids, viability, % test/control
Assay: Anticancer human tumor 454973-116-R2-J3-PDC cell line growth inhibition [GQUAD];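 also: spheroids exposed to compounds for seven days; 100% = DMSO vehicle control viability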
Conditions: second compound 10 µM; first compound 0.1 µM; active compounds read low; spheroids with HUVEC and MSC
Hi! Could you tag entries with viability, T/C below 20% as Satisfied, and those at or above as Not satisfied? Much appreciated.

Record excerpt, results attached:
compound	label value
C#Cc1c(F)ccc2cc(O)cc(-c3ncc4c(N5CC6CCC(C5)N6)nc(OCC56CCCN5CC(F)C6)nc4c3F)c12 (stereo unspecified) + Cc1cnc(CNC(=O)c2c(=O)c3ccc(N4CCCN(C)CC4)nc3n3c2sc2ccccc23)cn1	Satisfied
CC1COCCN1c1cc(-c2ccnn2C)c2ccnc(-c3ccn[nH]3)c2n1 (stereo unspecified) + Cc1cnc(CNC(=O)c2c(=O)c3ccc(N4CCCN(C)CC4)nc3n3c2sc2ccccc23)cn1	Satisfied
C=CC(=O)N1CCN(c2nc(=O)n(-c3c(C)ccnc3C(C)C)c3nc(-c4c(O)cccc4F)c(F)cc23)C(C)C1 (stereo unspecified) + Cc1cnc(CNC(=O)c2c(=O)c3ccc(N4CCCN(C)CC4)nc3n3c2sc2ccccc23)cn1	Satisfied
Cc1cccc(N(C)C(=O)C2C(O)CCN2c2nc(C)cc(C(F)(F)F)c2C#N)c1 (stereo unspecified) + Cc1[nH]c2ccc(F)cc2c1-c1nc2c3cccnc3c3ncccc3c2[nH]1	Not satisfied

Exam item: Consider the compound Nc1ccn(C2OC(CO)C(O)C2(F)F)c(=O)n1 (stereo unspecified) + Cc1[nH]c2ccc(F)cc2c1-c1nc2c3cccnc3c3ncccc3c2[nH]1 . Is its viability, T/C strictly less than 20%?
Marked response: Satisfied

Exam item: Same for O=C(c1cc(Cc2n[nH]c(=O)c3ccccc23)ccc1F)N1CCN(C(=O)C2CC2)CC1 + CN(C)c1ccc(Nc2c3ccc(NC(=O)CCN4CCCC4)cc3nc3cc(NC(=O)CCN4CCCC4)ccc23)cc1
Marked response: Not satisfied

Exam item: Same for COc1ncnc(C2CC2)c1-c1ncc2cnn(Cc3ccc(-c4nc(C(F)(F)F)cn4C(C)C)cc3)c2n1 + CN(C)c1ccc(Nc2c3ccc(NC(=O)CCN4CCCC4)cc3nc3cc(NC(=O)CCN4CCCC4)ccc23)cc1
Marked response: Not satisfied

Exam item: Same for CC1COCCN1c1cc(C2(O)CC3CCC(C2)O3)c2cnn(-c3ccn[nH]3)c2n1 (stereo unspecified) + CN(C)c1ccc(Nc2c3ccc(NC(=O)CCN4CCCC4)cc3nc3cc(NC(=O)CCN4CCCC4)ccc23)cc1
Marked response: Not satisfied

Exam item: Same for CC1COCCN1c1cc(C2(O)CC3CCC(C2)O3)c2cnn(-c3ccn[nH]3)c2n1 (stereo unspecified) + Cc1cnc(CNC(=O)c2c(=O)c3ccc(N4CCCN(C)CC4)nc3n3c2sc2ccccc23)cn1
Marked response: Satisfied

Exam item: Same for CC1COCCN1c1cc(C2(S(C)(=N)=O)CC2)nc(-c2ccnc3[nH]ccc23)n1 (stereo unspecified) + CN(C)c1ccc(Nc2c3ccc(NC(=O)CCN4CCCC4)cc3nc3cc(NC(=O)CCN4CCCC4)ccc23)cc1
Marked response: Not satisfied

Exam item: Same for COc1cc(C2c3cc4c(cc3C(OC3OC5COC(C)OC5C(O)C3O)C3COC(=O)C23)OCO4)cc(OC)c1O (stereo unspecified) + Cc1cnc(CNC(=O)c2c(=O)c3ccc(N4CCCN(C)CC4)nc3n3c2sc2ccccc23)cn1
Marked response: Satisfied

---

Test system: 454973-116-R2-J3-PDC spheroids, viability, % test/control
Assay: Anticancer human tumor 454973-116-R2-J3-PDC cell line growth inhibition [GQUAD];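 also: spheroids exposed to compounds for seven days; 100% = DMSO vehicle control viability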
Conditions: second compound 10 µM; first compound 0.0316 µM; active compounds read low; spheroids with HUVEC and MSC
Grouping key: viability, T/C. Bins: bucket 1: < 70%; bucket 2: ≥ 70% and < 90%; bucket 3: ≥ 90%

molecule	label value
CC(C)n1c(=O)n(C)c2cnc3cc(F)c(-c4ccc(OCCCN5CCCCC5)nc4)cc3c21 + Cc1cnc(CNC(=O)c2c(=O)c3ccc(N4CCCN(C)CC4)nc3n3c2sc2ccccc23)cn1	bucket 1
COc1cc(C2c3cc4c(cc3C(OC3OC5COC(C)OC5C(O)C3O)C3COC(=O)C23)OCO4)cc(OC)c1O (stereo not given) + Cc1[nH]c2ccc(F)cc2c1-c1nc2c3cccnc3c3ncccc3c2[nH]1	bucket 3

Next:
Exam item: Assign a category based on measured viability, T/C for Cc1[nH]c2ccccc2c1CCNCc1ccc(/C=C/C(=O)NO)cc1 + Cc1[nH]c2ccc(F)cc2c1-c1nc2c3cccnc3c3ncccc3c2[nH]1 and give only the class name.
Marked response: bucket 2

---

Test system: 454973-116-R2-J3-PDC spheroids, viability, % test/control
Test: Anticancer human tumor 454973-116-R2-J3-PDC cell line growth inhibition [GQUAD];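 also: spheroids exposed to compounds for seven days; 100% = DMSO vehicle control viability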
Settings: second compound 1 µM; first compound 0.316 µM; active compounds read low; spheroids with HUVEC and MSC
endpoint label: viability, T/C (%)
Give the quantity in %, number only.

Exam item: For the compound shown here, CC[C@@]1(O)C(=O)OCc2c1cc1n(c2=O)Cc2cc3c(CN(C)C)c(O)ccc3nc2-1 + Cc1cnc(CNC(=O)c2c(=O)c3ccc(N4CCCN(C)CC4)nc3n3c2sc2ccccc23)cn1 , give the reported viability, T/C.
Marked response: 47.4

Exam item: Same for CC1COCCN1c1cc(C2(S(C)(=N)=O)CC2)nc(-c2ccnc3[nH]ccc23)n1 (stereo unspecified) + Cc1cnc(CNC(=O)c2c(=O)c3ccc(N4CCCN(C)CC4)nc3n3c2sc2ccccc23)cn1
Marked response: 70

Exam item: Same for O=c1[nH]cc(F)c(=O)[nH]1 + Cc1cnc(CNC(=O)c2c(=O)c3ccc(N4CCCN(C)CC4)nc3n3c2sc2ccccc23)cn1
Marked response: 79.4

Exam item: Same for Nc1ccn(C2OC(CO)C(O)C2(F)F)c(=O)n1 (stereo unspecified) + Cc1cnc(CNC(=O)c2c(=O)c3ccc(N4CCCN(C)CC4)nc3n3c2sc2ccccc23)cn1
Marked response: 24

Exam item: Same for CCc1c2c(nc3ccc(O)cc13)-c1cc3c(c(=O)n1C2)COC(=O)[C@]3(O)CC + Cc1cnc(CNC(=O)c2c(=O)c3ccc(N4CCCN(C)CC4)nc3n3c2sc2ccccc23)cn1
Marked response: 2.75

Exam item: Same for Cc1[nH]c2ccccc2c1CCNCc1ccc(/C=C/C(=O)NO)cc1 + CN(C)c1ccc(Nc2c3ccc(NC(=O)CCN4CCCC4)cc3nc3cc(NC(=O)CCN4CCCC4)ccc23)cc1
Marked response: 8.83
